Collected pIC50 values appear next to each entry.
measurement_target: Human KLKB1 (Homo sapiens (Human))
Sequence (P03952 391-638 limits assumed): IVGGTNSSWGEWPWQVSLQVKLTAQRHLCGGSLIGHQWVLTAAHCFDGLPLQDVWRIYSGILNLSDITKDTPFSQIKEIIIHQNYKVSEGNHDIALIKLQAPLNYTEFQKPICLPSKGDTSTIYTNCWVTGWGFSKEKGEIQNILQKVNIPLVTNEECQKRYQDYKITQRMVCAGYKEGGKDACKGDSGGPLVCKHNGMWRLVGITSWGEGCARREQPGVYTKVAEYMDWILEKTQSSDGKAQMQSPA
Sequence (P03952 20-390 partner limits assumed): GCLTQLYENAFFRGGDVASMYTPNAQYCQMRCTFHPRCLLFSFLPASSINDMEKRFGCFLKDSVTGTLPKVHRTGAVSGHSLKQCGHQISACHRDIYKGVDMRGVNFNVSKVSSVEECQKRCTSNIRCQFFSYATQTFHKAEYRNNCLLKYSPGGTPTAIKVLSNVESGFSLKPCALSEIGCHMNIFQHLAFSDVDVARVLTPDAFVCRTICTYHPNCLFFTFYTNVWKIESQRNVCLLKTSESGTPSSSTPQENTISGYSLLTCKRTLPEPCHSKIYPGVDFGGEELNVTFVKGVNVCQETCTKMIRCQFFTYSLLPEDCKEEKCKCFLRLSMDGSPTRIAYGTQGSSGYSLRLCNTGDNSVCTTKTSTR
protocol_description: KLKB1 kallikrein activity inhibition assay (chromogenic substrate S-2302)
Assay type: biochemical
condition_info: Table C
pIC50: −log10 of the molar value.

molecule: O=C(c1ccoc1)n1nc(C2CCCO2)nc1NCc1ccc(Cl)s1 (stereo not shown) [Cmpd 392]
measurement_target: Human KLKB1 (Homo sapiens (Human))
pIC50: 6.00 to 7.00

molecule: O=C(c1ccccc1)n1nc(-c2ccccn2)nc1NCc1ccccc1 [Cmpd 362]
measurement_target: Human KLKB1 (Homo sapiens (Human))
pIC50: 6.00 to 7.00

molecule: COc1ccccc1C(=O)n1nc(-c2ccco2)nc1NCc1ccccc1 [Cmpd 403]
measurement_target: Human KLKB1 (Homo sapiens (Human))
pIC50: 5.00 to 6.00

molecule: COc1ccc(CNc2nc(-c3cccnc3)nn2C(=O)c2cccs2)cc1 [Cmpd 381]
measurement_target: Human KLKB1 (Homo sapiens (Human))
pIC50: < 4.00

molecule: COc1ccccc1C(=O)n1nc(-c2ccncn2)nc1NCc1ccccc1 [Cmpd 16]
measurement_target: Human KLKB1 (Homo sapiens (Human))
pIC50: 6.00 to 7.00

molecule: COc1ccccc1C(=O)n1nc(C2CCN(C(=O)OC(C)(C)C)CC2)nc1NCc1ccc(Cl)s1 [Cmpd 412]
measurement_target: Human KLKB1 (Homo sapiens (Human))
pIC50: 6.00 to 7.00

molecule: COc1ccccc1C(=O)n1nc(-c2ccc(N3CCOCC3)cc2)nc1NCc1ccc(Cl)s1 [Cmpd 389]
measurement_target: Human KLKB1 (Homo sapiens (Human))
pIC50: 5.00 to 6.00

molecule: O=C(c1cccs1)n1nc(-c2ccncc2)nc1NCc1ccccc1 [Cmpd 406]
measurement_target: Human KLKB1 (Homo sapiens (Human))
pIC50: < 4.00

molecule: COc1ccccc1C(=O)n1nc(C2CN(S(=O)(=O)N3CCCC3)C2)nc1NCc1ccc(Cl)s1 [Cmpd 388]
measurement_target: Human KLKB1 (Homo sapiens (Human))
pIC50: > 7.00

molecule: COc1ccccc1C(=O)n1nc(-c2ccccc2)nc1NCc1ccc(Cl)o1 [Cmpd 383]
measurement_target: Human KLKB1 (Homo sapiens (Human))
pIC50: < 4.00

molecule: COc1ccc(CNc2nc(-c3ccccn3)nn2C(=O)CCc2ccccc2)cc1 [Cmpd 323]
measurement_target: Human KLKB1 (Homo sapiens (Human))
pIC50: 5.00 to 6.00

molecule: COCC(=O)n1nc(-c2cccnc2)nc1NCc1ccc(F)cc1 [Cmpd 309]
measurement_target: Human KLKB1 (Homo sapiens (Human))
pIC50: < 4.00

molecule: CCC(=O)n1nc(-c2cccnc2)nc1NCc1ccc(F)cc1 [Cmpd 7]
measurement_target: Human KLKB1 (Homo sapiens (Human))
pIC50: 4.00 to 5.00
